- testName: Tissue distribution after single oral SZ-A (40 mg/kg) in SD rats, plasma and 12 tissues
- Type: in vivo
- conditionContext: Sprague-Dawley, rat, Brown adipose tissue, n=5
measuredEndpoint: half-life (min)

P = OC[C@H]1NC[C@H](O)[C@@H](O)[C@@H]1O [DNJ, 1-deoxynojirimycin]
Q = OC[C@H]1NCC[C@@H](O)[C@@H]1O [FA, fagomine]
R = OC[C@H]1NC[C@@H](O)[C@@H]1O [DAB, 1,4-dideoxy-1,4-imino-D-arabinitol]
Arrange by half-life, high to low. # the answer lists labels in the order requested
Q, R, P
(Q: 139 min, R: 40.8 min, P: 26.4 min)

###

- testName: Tissue distribution after single oral SZ-A (40 mg/kg) in SD rats, plasma and 12 tissues
- Assay type: in vivo
- conditionContext: rat, heart, aortic vessels, read-out: time of peak concentration in heart and aortic vessels (converted)
measuredEndpoint: Tmax (min)
Just the number in min, nothing appended.

Indicate its recorded Tmax; the compound in question is OC[C@H]1NC[C@H](O)[C@@H](O)[C@@H]1O [DNJ, 1-deoxynojirimycin]
5

###

- testName: Tissue distribution after single oral SZ-A (40 mg/kg) in SD rats, plasma and 12 tissues
- Format: in vivo
- conditionContext: Sprague-Dawley, rat, Kidney, n=5
measuredEndpoint: half-life (h)

INSERT INTO results (smi, measuredendpoint, quantitativeresult) VALUES
  ('OC[C@H]1NCC[C@@H](O)[C@@H]1O', 'half-life', 2.31),
  ('OC[C@H]1NC[C@H](O)[C@@H](O)[C@@H]1O', 'half-life', 2.46),
  ('OC[C@H]1NC[C@@H](O)[C@@H]1O', 'half-life', 2.75);

###

- testName: Tissue distribution after single oral SZ-A (40 mg/kg) in SD rats, plasma and 12 tissues
- Type: in vivo
- conditionContext: rat, Brain, n=5
measuredEndpoint: half-life (h)
Just the number in h, nothing appended.

Indicate its recorded half-life; the compound in question is OC[C@H]1NC[C@H](O)[C@@H](O)[C@@H]1O [DNJ, 1-deoxynojirimycin]
8.04

###

- testName: Pharmacokinetic study: plasma levels after oral SZ-A in SD rats (LC-MS/MS, DAS 3.2.8)
- Assay type: in vivo
- conditionContext: both sexes, SD, rat, plasma, po, 200 mg/kg, plasma, oral SZ-A 200 mg/kg, n=8, read-out: Tmax
measuredEndpoint: Tmax (min)

INSERT INTO results (compound, unitinfo, quantitativeresult) VALUES
  ('OC[C@H]1NC[C@H](O)[C@@H](O)[C@@H]1O [DNJ, 1-deoxynojirimycin]', 'min', 46.8),
  ('OC[C@H]1NC[C@@H](O)[C@@H]1O [DAB, 1,4-dideoxy-1,4-imino-D-arabinitol]', 'min', 45),
  ('OC[C@H]1NCC[C@@H](O)[C@@H]1O [FA, fagomine]', 'min', 52.8);

###

- testName: Tissue distribution after single oral SZ-A (40 mg/kg) in SD rats, plasma and 12 tissues
- Type: in vivo
- conditionContext: Sprague-Dawley, rat, Lung, n=5
measuredEndpoint: Cmax (ng/mL)

INSERT INTO assay_data (compound, quantitativeresult) VALUES
  ('OC[C@H]1NCC[C@@H](O)[C@@H]1O [FA, fagomine]', 248);

1 = OC[C@H]1NC[C@H](O)[C@@H](O)[C@@H]1O [DNJ, 1-deoxynojirimycin]
2 = OC[C@H]1NC[C@@H](O)[C@@H]1O [DAB, 1,4-dideoxy-1,4-imino-D-arabinitol]
Between the two listed entries 1 and 2 , which has its Cmax at the higher number? State your choice using its label.
1
